Each entry below carries its recorded HIV Protease % Inhibition at 10 μM.
- target-under-test: HIV protease (Human immunodeficiency virus type 1 group M subtype B, UniProt P04585)
- Construct: and purified protease
- assay-notes: HIV Protease Assay
- Assay type: biochemical
- assay-context: 10 μM inhibitor, 4% DMSO, 450 μM substrate, pH 5.5, 30 minutes at 37° C., RP-HPLC
property-measured: HIV Protease % Inhibition at 10 μM (%)

{"columns": ["compound", "property-measured", "recorded-number"],
 "data": [
  ["CC(C)(C)OC(=O)N[C@@H](Cc1ccccc1)[C@H](O)CNC[C@@H](O)[C@H](Cc1ccccc1)NC(=O)C(CCO)C(C)(C)C (single isomer, unassigned; isomer a) [Compound 312]", "HIV Protease % Inhibition at 10 μM", 95],
  ["CC(C)(C)OC(=O)N[C@@H](Cc1ccccc1)[C@H](O)CNC[C@@H](O)[C@H](Cc1ccccc1)NC(=O)C1NC(=O)OC1(C)C (single isomer, unassigned; isomer b) [Compound 240]", "HIV Protease % Inhibition at 10 μM", 99],
  ["CC(C)(C)OC(=O)N[C@@H](Cc1ccccc1)[C@H](O)CNC[C@@H](O)[C@H](Cc1ccccc1)NC(=O)C(NC(=O)OCc1ccccc1)C(C)(C)CO (single isomer, unassigned; isomer b) [Compound 309]", "HIV Protease % Inhibition at 10 μM", 100],
  ["CNC(=O)C(O)(C(=O)N[C@@H](Cc1ccccc1)[C@H](O)CNC[C@@H](O)[C@H](Cc1ccccc1)NC(=O)OC(C)(C)C)C(C)(C)C (single isomer, unassigned; isomer b) [Compound 385]", "HIV Protease % Inhibition at 10 μM", 99],
  ["CC(C)(C)OC(=O)N[C@@H](Cc1ccccc1)[C@H](O)CNC[C@@H](O)[C@H](Cc1ccccc1)NC(=O)C1NC(=O)CC1(C)C (single isomer, unassigned) [Compound 267]", "HIV Protease % Inhibition at 10 μM", 97],
  ["CC(C)(C)OC(=O)N[C@@H](Cc1ccccc1)[C@H](O)CNC[C@@H](O)[C@H](Cc1ccccc1)NC(=O)C1(O)COCC1(C)C (single isomer, unassigned; isomer a) [Compound 364]", "HIV Protease % Inhibition at 10 μM", 98],
  ["CC(C)(C)OC(=O)N[C@@H](Cc1ccccc1)[C@H](O)CNC[C@@H](O)[C@H](Cc1ccccc1)NC(=O)OC1c2ccccc2CC1O (stereo partly drawn) [Compound 215]", "HIV Protease % Inhibition at 10 μM", 66],
  ["CC(C)(C)OC(=O)N[C@@H](Cc1ccccc1)[C@H](O)CNC[C@@H](O)[C@H](Cc1ccccc1)NC(=O)C(O)(CO)C(C)(C)C (single isomer, unassigned; isomer b) [Compound 367]", "HIV Protease % Inhibition at 10 μM", 50],
  ["CC(C)(CO)OC(=O)N[C@@H](Cc1ccccc1)[C@H](O)CNC[C@@H](O)[C@H](Cc1ccccc1)NC(=O)C1(O)CCCC1(C)C (single isomer, unassigned; isomer b) [Compound 369]", "HIV Protease % Inhibition at 10 μM", 96],
  ["CC(C)(C)OC(=O)N[C@@H](Cc1ccccc1)[C@H](O)CNC[C@@H](O)[C@H](Cc1ccccc1)NC(=O)C(CCO)C(C)(C)C (single isomer, unassigned; isomer b) [Compound 313]", "HIV Protease % Inhibition at 10 μM", 65],
  ["CC(C)(C)OC(=O)N[C@@H](Cc1ccccc1)[C@H](O)CNC[C@@H](O)[C@H](Cc1ccccc1)NC(=O)C1(O)CCCCC1(C)C (single isomer, unassigned; isomer b) [Compound 362]", "HIV Protease % Inhibition at 10 μM", 98],
  ["CC(C)(C)OC(=O)N[C@@H](Cc1ccccc1)[C@H](O)CNC[C@@H](O)[C@H](Cc1ccccc1)NC(=O)C(O)C(F)(F)F (single isomer, unassigned; isomer b) [Compound 272]", "HIV Protease % Inhibition at 10 μM", 87]
]}

* * *

Examples of molecules with documented inhibition at 10 µM follow.
- target-under-test: HIV protease (Human immunodeficiency virus type 1 group M subtype B)
- Construct: and purified protease
- assay-notes: HIV Protease Assay
- Format: biochemical
- assay-context: pH 5.5, 10 μM inhibitor, 4% DMSO, 450 μM substrate, pH 5.5, 30 minutes at 37° C., RP-HPLC; read-out: HIV Protease % Inhibition at 10 μM

{"columns": ["molecule", "target-under-test", "inhibition at 10 µM (%)"],
 "data": [
  ["CC(C)(C)OC(=O)N[C@@H](Cc1ccccc1)[C@H](O)CNC[C@@H](O)[C@H](Cc1ccccc1)NC(=O)[C@@H](NC(=O)OCCOc1ccccc1)C(C)(C)C", "HIV protease (Human immunodeficiency virus type 1 group M subtype B)", 99],
  ["COC(=O)N[C@H](C(=O)N[C@@H](Cc1ccccc1)[C@H](O)CNC[C@@H](O)[C@H](Cc1ccccc1)NC(=O)[C@@H](NC(=O)OC)C(C)(C)C)C(C)(C)C (relative stereo)", "HIV protease (Human immunodeficiency virus type 1 group M subtype B)", 100],
  ["CC(C)(C)OC(=O)N[C@@H](Cc1ccccc1)[C@H](O)CNC[C@@H](O)[C@H](Cc1ccc2ncccc2c1)NC(=O)OC(C)(C)C", "HIV protease (Human immunodeficiency virus type 1 group M subtype B)", 100],
  ["CC(C)(C)OC(=O)N1Cc2ccccc2C[C@H]1[C@H](O)CNC[C@H](O)[C@@H]1Cc2ccccc2CN1C(=O)OC(C)(C)C", "HIV protease (Human immunodeficiency virus type 1 group M subtype B)", 1],
  ["CC(C)[C@H](NC(=O)OCc1cc2ccccc2[nH]1)C(=O)N[C@@H](Cc1ccccc1)[C@H](O)CNC[C@@H](O)[C@H](Cc1ccccc1)NC(=O)OC(C)(C)C (relative stereo)", "HIV protease (Human immunodeficiency virus type 1 group M subtype B)", 99],
  ["CC(C)[C@@H](C(=O)N[C@@H](Cc1ccccc1)[C@H](O)CNC[C@@H](O)[C@H](Cc1ccccc1)NC(=O)OC(C)(C)C)N(C)C(=O)OCc1ccccc1", "HIV protease (Human immunodeficiency virus type 1 group M subtype B)", 99],
  ["CC(C)(C)OC(=O)N[C@@H](Cc1ccccc1)[C@H](O)CNC[C@@H](O)[C@H](Cc1ccccc1)NC(=O)OC[C@H](O)CO", "HIV protease (Human immunodeficiency virus type 1 group M subtype B)", 83],
  ["CC(C)(C)OC(=O)N[C@@H](Cc1ccccc1)[C@H](O)CNC[C@@H](O)[C@H](Cc1ccccc1)N1CC(C)(C)OC1=O", "HIV protease (Human immunodeficiency virus type 1 group M subtype B)", 61],
  ["CC(C)(C)OC(=O)N[C@@H](Cc1ccccc1)[C@H](O)CNC[C@@H](O)[C@H](Cc1ccc(OCc2nc3ccccc3o2)cc1)NC(=O)OC(C)(C)C", "HIV protease (Human immunodeficiency virus type 1 group M subtype B)", 99],
  ["CC(C)(C)OC(=O)N[C@@H](Cc1ccccc1)[C@H](O)CNC[C@@H](O)[C@H](Cc1ccccc1)NC(=O)OC1(CO)CCC1", "HIV protease (Human immunodeficiency virus type 1 group M subtype B)", 98],
  ["CC(C)[C@H](NC(=O)OCc1ccccc1)C(=O)N(C)[C@@H](Cc1ccccc1)[C@H](O)CNC[C@@H](O)[C@H](Cc1ccccc1)NC(=O)OC(C)(C)C", "HIV protease (Human immunodeficiency virus type 1 group M subtype B)", 87]
]}

* * *

- target-under-test: HIV protease (Human immunodeficiency virus type 1 group M subtype B)
- Construct: and purified protease
- assay-notes: HIV Protease Assay
- Assay type: biochemical
- assay-context: pH 5.5, 10 μM inhibitor, 4% DMSO, 450 μM substrate, pH 5.5, 30 minutes at 37° C., RP-HPLC; read-out: HIV Protease % Inhibition at 10 μM
Counter-ions that a name gives are not always drawn.

{"columns": ["compound", "inhibition at 10 µM [%]"],
 "data": [
  ["CC(C)(C)OC(=O)N[C@@H](Cc1ccccc1)[C@H](O)CNC[C@@H](O)[C@H](Cc1ccccc1)NC(=O)OC(C)(C)[C@H](O)CO [Compound 228]", 98],
  ["CC1(C)CCCC1(O)C(=O)N[C@@H](Cc1ccccc1)[C@H](O)CNC[C@@H](O)[C@H](Cc1ccccc1)NC(=O)C1(O)CCCC1(C)C (single isomer, unassigned; isomer a) [Compound 336]", 100],
  ["CC(C)[C@H](NC(=O)OCc1ccccc1)C(=O)N[C@@H](Cc1ccccc1)[C@H](O)CNC[C@@H](O)[C@H](Cc1ccccc1)NC(=O)OC(C)(C)C [Compound 52]", 100],
  ["CC(C)[C@H](NC(=O)OCc1ccccc1)C(=O)N[C@@H](Cc1ccccc1)[C@@H](O)CNC[C@H](O)[C@H](Cc1ccccc1)NC(=O)OC(C)(C)C [Compound 117]", 14],
  ["CC(C)(C)OC(=O)N[C@@H](Cc1ccccc1)[C@H](O)CNC[C@@H](O)[C@H](Cc1ccc(OCCc2ccccn2)cc1)NC(=O)OC(C)(C)CO [Compound 282]", 100],
  ["CC(C)[C@H](NC(=O)OC[C@H](O)CO)C(=O)N[C@@H](Cc1ccccc1)[C@H](O)CNC[C@@H](O)[C@H](Cc1ccccc1)NC(=O)OC(C)(C)C (relative stereo) [Compound 219]", 86],
  ["CC(C)C[C@H](N)C(=O)N[C@H](C(=O)N[C@@H](Cc1ccccc1)[C@H](O)CNC[C@@H](O)[C@H](Cc1ccccc1)NC(=O)OC(C)(C)C)C(C)C [Compound 98, fumarate salt]", 100],
  ["CC(C)(C)[C@@](C)(O)C(=O)N[C@@H](Cc1ccccc1)[C@H](O)CNC[C@@H](O)[C@H](Cc1ccccc1)NC(=O)[C@](C)(O)C(C)(C)C [Compound 344]", 99],
  ["C[C@H](NC=O)C(=O)N[C@H](C(=O)N[C@@H](Cc1ccccc1)[C@H](O)CNC[C@@H](O)[C@H](Cc1ccccc1)NC(=O)OC(C)(C)C)C(C)(C)C (relative stereo) [Compound 284]", 100],
  ["CN(C)C(=O)N[C@H](C(=O)N[C@@H](Cc1ccccc1)[C@H](O)CNC[C@@H](O)[C@H](Cc1ccccc1)NC(=O)OC(C)(C)C)C(C)(C)C (relative stereo) [Compound 305]", 100]
]}
